System: MDA-N
Assay: NCI tumour cell line growth inhibition, 48 h
measured endpoint: TGI (µM)
Form entry: value (µM) — number only.

Sample answers from the record:
>>> value_reported("CC(CC(=O)CO[C@H]1[C@H](O)[C@@H](O)[C@@H](O)[C@@H]2NC(=O)c3c(cc4c(c3O)OCO4)[C@H]21)OC1OC(CO)C(O)C(O)C1O (some centres undefined)")
3.91
>>> value_reported("O=C(c1ccc(Cl)cc1Cl)N(Cc1cccnc1)C(=S)N(Cc1cccnc1)C(=O)c1ccc(Cl)cc1Cl")
6.76
>>> value_reported("NCC(O)CNCC/C=C\\C/C=C\\C/C=C\\C/C=C\\C/C=C\\C/C=C\\CCCCC/C=C\\CCNCC(O)CN (centres undefined)")
3.09
>>> value_reported("O=C(NCCN1C(=O)CN=C(c2ccc(Cl)cc2)c2cc(Cl)ccc21)OCc1ccccc1")
31.9
>>> value_reported("CC(=O)OCCC1c2ccccc2-n2nc(-c3ccccc3)c(O)c21 (centres undefined)")
33.2
>>> value_reported("C[C@H](CCC1=NCCN1)[C@H]1CC[C@H]2[C@@H]3[C@H](O)C[C@@H]4C[C@H](O)CC[C@]4(C)[C@H]3CC[C@]12C")
32.7
>>> value_reported("CC(NC1=CC(=O)c2ncccc2C1=O)C(O)c1ccccc1 (centres undefined)")
3
>>> value_reported("COc1ccccc1/C=C1\\Sc2scc(-c3cccc([N+](=O)[O-])c3)[n+]2C1=O")
12.3

Short answer for CC(=O)Oc1ccc(N2C(=O)C3c4[nH]c5ccccc5c4C4CCC(C(C)(C)C)CC4C3C2=O)cc1 (centres undefined) : TGI was 14.1
